System: 997726-040-R-J2-PDC tumor spheroids, viability
test_name: Anticancer human tumor 997726-040-R-J2-PDC patient-derived squamous cell lung carcinoma cell line growth inhibition [PI3K]
condition: second compound 0.1 µM; first compound 0.949 µM; stronger effect = lower value; spheroids with HUVEC and MSC

molecule: Cn1cnc2c(F)c(Nc3ccc(Br)cc3Cl)c(C(=O)NOCCO)cc21 + Cc1nc(NC(=O)N2CCCC2C(N)=O)sc1-c1ccnc(C(C)(C)C(F)(F)F)c1
study_system: 997726-040-R-J2-PDC tumor spheroids, viability
viability, T/C, %: 38.7
//
molecule: Cn1cnc2c(F)c(Nc3ccc(Br)cc3Cl)c(C(=O)NOCCO)cc21 + COc1c(OCCCN2CCOCC2)ccc2c3n(c(=NC(=O)c4cnc(N)nc4)nc12)CCN3
study_system: 997726-040-R-J2-PDC tumor spheroids, viability
viability, T/C, %: 14.7
//
molecule: Cn1cnc2c(F)c(Nc3ccc(Br)cc3Cl)c(C(=O)NOCCO)cc21 + CC(Nc1ccc2c(c1)OCCn1cc(N3C(=O)OCC3C(F)F)nc1-2)C(N)=O
study_system: 997726-040-R-J2-PDC tumor spheroids, viability
viability, T/C, %: 21
//
molecule: Cn1cnc2c(F)c(Nc3ccc(Br)cc3Cl)c(C(=O)NOCCO)cc21 + CC(Nc1ncnc2nc[nH]c12)c1cc2cccc(Cl)c2c(=O)n1-c1ccccc1
study_system: 997726-040-R-J2-PDC tumor spheroids, viability
viability, T/C, %: 49.8

----------
Test system: 997726-040-R-J2-PDC tumor spheroids, viability
test_name: Anticancer human tumor 997726-040-R-J2-PDC cell line growth inhibition [PI3K];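 further: spheroids exposed to compounds for seven days before readout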
condition: second compound 3.16 µM; first compound 1 µM; stronger effect = lower value; spheroids with HUVEC and MSC
Here, each record is paired with measured viability, T/C data.

compound: C#Cc1c(F)ccc2cc(O)cc(-c3ncc4c(N5CC6CCC(C5)N6)nc(OCC56CCCN5CC(F)C6)nc4c3F)c12 (configuration not stated) + Cc1nc(NC(=O)N2CCCC2C(N)=O)sc1-c1ccnc(C(C)(C)C(F)(F)F)c1
unit_abbreviation: %
viability, T/C: 28.5

compound: CC1(C)CCC(CN2CCN(c3ccc(C(=O)NS(=O)(=O)c4ccc(NCC5CCOCC5)c([N+](=O)[O-])c4)c(Oc4cnc5[nH]ccc5c4)c3)CC2)=C(c2ccc(Cl)cc2)C1 + Cc1nc(NC(=O)N2CCCC2C(N)=O)sc1-c1ccnc(C(C)(C)C(F)(F)F)c1
unit_abbreviation: %
viability, T/C: 26.2

----------
Property: IC50; scope: individual compounds
Test system: 997726-040-R-J2-PDC tumor spheroids, viability
test_name: Anticancer human tumor 997726-040-R-J2-PDC cell line growth inhibition [PI3K];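 further: spheroids exposed to compounds for seven days before readout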
condition: curve of first compound; second compound 0.1 µM; spheroids with HUVEC and MSC

compound: CCCS(=O)(=O)Nc1ccc(F)c(C(=O)c2c[nH]c3ncc(-c4ccc(Cl)cc4)cc23)c1F + CC(Nc1ncnc2nc[nH]c12)c1cc2cccc(Cl)c2c(=O)n1-c1ccccc1
IC50: 7370 nM
--
compound: CC(C)n1nc(-c2ccc3oc(N)nc3c2)c2c(N)ncnc21 + CC(Nc1ccc2c(c1)OCCn1cc(N3C(=O)OCC3C(F)F)nc1-2)C(N)=O
IC50: < 0.316 nM
--
compound: C#Cc1c(F)ccc2cc(O)cc(-c3ncc4c(N5CC6CCC(C5)N6)nc(OCC56CCCN5CC(F)C6)nc4c3F)c12 (stereo not given) + COc1c(OCCCN2CCOCC2)ccc2c3n(c(=NC(=O)c4cnc(N)nc4)nc12)CCN3
IC50: < 31.6 nM
--
compound: CC1(C)CCC(CN2CCN(c3ccc(C(=O)NS(=O)(=O)c4ccc(NCC5CCOCC5)c([N+](=O)[O-])c4)c(Oc4cnc5[nH]ccc5c4)c3)CC2)=C(c2ccc(Cl)cc2)C1 + COc1c(OCCCN2CCOCC2)ccc2c3n(c(=NC(=O)c4cnc(N)nc4)nc12)CCN3
IC50: < 31.6 nM
--
compound: CCN1CCN(Cc2ccc(Nc3ncc(F)c(-c4cc(F)c5nc(C)n(C(C)C)c5c4)n3)nc2)CC1 + CC(Nc1ccc2c(c1)OCCn1cc(N3C(=O)OCC3C(F)F)nc1-2)C(N)=O
IC50: < 3.16 nM
--
compound: CCCS(=O)(=O)Nc1ccc(F)c(C(=O)c2c[nH]c3ncc(-c4ccc(Cl)cc4)cc23)c1F + COc1c(OCCCN2CCOCC2)ccc2c3n(c(=NC(=O)c4cnc(N)nc4)nc12)CCN3
IC50: < 31.6 nM
--
compound: CC(C)NCC(C(=O)N1CCN(c2ncnc3c2C(C)CC3O)CC1)c1ccc(Cl)cc1 (stereo not given) + CC(Nc1ncnc2nc[nH]c12)c1cc2cccc(Cl)c2c(=O)n1-c1ccccc1
IC50: 400 nM
--
compound: CC(=O)c1c(C)c2cnc(Nc3ccc(N4CCNCC4)cn3)nc2n(C2CCCC2)c1=O + CC(Nc1ccc2c(c1)OCCn1cc(N3C(=O)OCC3C(F)F)nc1-2)C(N)=O
IC50: < 0.316 nM
--
compound: CC(Cn1ccc(-c2ccc(C#N)c(Cl)c2)n1)NC(=O)c1cc(C(C)O)[nH]n1 (stereo not given) + CC(Nc1ncnc2nc[nH]c12)c1cc2cccc(Cl)c2c(=O)n1-c1ccccc1
IC50: > 10000 nM
--
compound: CC1(C)CCC(CN2CCN(c3ccc(C(=O)NS(=O)(=O)c4ccc(NCC5CCOCC5)c([N+](=O)[O-])c4)c(Oc4cnc5[nH]ccc5c4)c3)CC2)=C(c2ccc(Cl)cc2)C1 + CC(Nc1ccc2c(c1)OCCn1cc(N3C(=O)OCC3C(F)F)nc1-2)C(N)=O
IC50: < 31.6 nM

----------
Recorded IC50 for the following compounds
Test system: 997726-040-R-J2-PDC tumor spheroids, viability
test_name: Anticancer human tumor 997726-040-R-J2-PDC cell line growth inhibition [PI3K];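 further: spheroids exposed to compounds for seven days before readout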
condition: curve of compound; spheroids with HUVEC and MSC
property: IC50

compound: CC(=O)c1c(C)c2cnc(Nc3ccc(N4CCNCC4)cn3)nc2n(C2CCCC2)c1=O
study_system: 997726-040-R-J2-PDC tumor spheroids, viability
result: > 0.1 µM

compound: CCN1CCN(Cc2ccc(Nc3ncc(F)c(-c4cc(F)c5nc(C)n(C(C)C)c5c4)n3)nc2)CC1
study_system: 997726-040-R-J2-PDC tumor spheroids, viability
result: > 1 µM

compound: CNC(=O)c1ccc(N2C(=S)N(c3ccc(C#N)c(C(F)(F)F)c3)C(=O)C2(C)C)cc1F
study_system: 997726-040-R-J2-PDC tumor spheroids, viability
result: > 10 µM

compound: Cn1nccc1Nc1nccc(-c2ccn(C(CO)c3ccc(Cl)c(F)c3)c(=O)c2)n1 (centres undefined)
study_system: 997726-040-R-J2-PDC tumor spheroids, viability
result: > 10 µM

compound: CC1(C)CCC(CN2CCN(c3ccc(C(=O)NS(=O)(=O)c4ccc(NCC5CCOCC5)c([N+](=O)[O-])c4)c(Oc4cnc5[nH]ccc5c4)c3)CC2)=C(c2ccc(Cl)cc2)C1
study_system: 997726-040-R-J2-PDC tumor spheroids, viability
result: 8.5 µM [middle of 4 runs]

compound: CC(Cn1ccc(-c2ccc(C#N)c(Cl)c2)n1)NC(=O)c1cc(C(C)O)[nH]n1 (centres undefined)
study_system: 997726-040-R-J2-PDC tumor spheroids, viability
result: > 10 µM

compound: Cn1ncc(Cl)c1-c1cc(C(=O)NC(CN)Cc2cccc(F)c2)sc1Cl (centres undefined)
study_system: 997726-040-R-J2-PDC tumor spheroids, viability
result: 92.5 nM [middle of 4 runs]

compound: C#Cc1c(F)ccc2cc(O)cc(-c3ncc4c(N5CC6CCC(C5)N6)nc(OCC56CCCN5CC(F)C6)nc4c3F)c12 (centres undefined)
study_system: 997726-040-R-J2-PDC tumor spheroids, viability
result: > 10 µM

compound: CC(C)n1nc(-c2ccc3oc(N)nc3c2)c2c(N)ncnc21
study_system: 997726-040-R-J2-PDC tumor spheroids, viability
result: 28.8 nM [middle of 4 runs]

----------
System: 997726-040-R-J2-PDC tumor spheroids, viability
test_name: Anticancer human tumor 997726-040-R-J2-PDC cell line growth inhibition [PI3K];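 further: spheroids exposed to compounds for seven days before readout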
condition: second compound 3.16 µM; first compound 10 µM; stronger effect = lower value; spheroids with HUVEC and MSC
Definition: the class of an entry is the range in bin 0 = under 20%, bin 1 = from 20% up to 30%, bin 2 = 30% and over that contains its viability, T/C.

molecule: Cn1ncc(Cl)c1-c1cc(C(=O)NC(CN)Cc2cccc(F)c2)sc1Cl (configuration not stated) + Cc1nc(NC(=O)N2CCCC2C(N)=O)sc1-c1ccnc(C(C)(C)C(F)(F)F)c1
label_class: bin 0
--
molecule: C#Cc1c(F)ccc2cc(O)cc(-c3ncc4c(N5CC6CCC(C5)N6)nc(OCC56CCCN5CC(F)C6)nc4c3F)c12 (configuration not stated) + Cc1nc(NC(=O)N2CCCC2C(N)=O)sc1-c1ccnc(C(C)(C)C(F)(F)F)c1
label_class: bin 1
--
molecule: CC1(C)CCC(CN2CCN(c3ccc(C(=O)NS(=O)(=O)c4ccc(NCC5CCOCC5)c([N+](=O)[O-])c4)c(Oc4cnc5[nH]ccc5c4)c3)CC2)=C(c2ccc(Cl)cc2)C1 + Cc1nc(NC(=O)N2CCCC2C(N)=O)sc1-c1ccnc(C(C)(C)C(F)(F)F)c1
label_class: bin 0
--
molecule: CC(C)NCC(C(=O)N1CCN(c2ncnc3c2C(C)CC3O)CC1)c1ccc(Cl)cc1 (configuration not stated) + CC(Nc1ncnc2nc[nH]c12)c1cc2cccc(Cl)c2c(=O)n1-c1ccccc1
label_class: bin 0
--
molecule: CNC(=O)c1ccc(N2C(=S)N(c3ccc(C#N)c(C(F)(F)F)c3)C(=O)C2(C)C)cc1F + Cc1nc(NC(=O)N2CCCC2C(N)=O)sc1-c1ccnc(C(C)(C)C(F)(F)F)c1
label_class: bin 1
--
molecule: Cn1ncc(Cl)c1-c1cc(C(=O)NC(CN)Cc2cccc(F)c2)sc1Cl (configuration not stated) + CC(Nc1ncnc2nc[nH]c12)c1cc2cccc(Cl)c2c(=O)n1-c1ccccc1
label_class: bin 0
--
molecule: CNC(=O)c1ccc(N2C(=S)N(c3ccc(C#N)c(C(F)(F)F)c3)C(=O)C2(C)C)cc1F + CC(Nc1ncnc2nc[nH]c12)c1cc2cccc(Cl)c2c(=O)n1-c1ccccc1
label_class: bin 2
--
molecule: Cn1nccc1Nc1nccc(-c2ccn(C(CO)c3ccc(Cl)c(F)c3)c(=O)c2)n1 (configuration not stated) + Cc1nc(NC(=O)N2CCCC2C(N)=O)sc1-c1ccnc(C(C)(C)C(F)(F)F)c1
label_class: bin 0
--
molecule: CC1(C)CCC(Nc2ncc(C(F)(F)F)c(-c3c[nH]c4c(P(C)(C)=O)c(C#N)ccc34)n2)CN1 (configuration not stated) + CC(Nc1ncnc2nc[nH]c12)c1cc2cccc(Cl)c2c(=O)n1-c1ccccc1
label_class: bin 1
--
molecule: CC1(C)CCC(Nc2ncc(C(F)(F)F)c(-c3c[nH]c4c(P(C)(C)=O)c(C#N)ccc34)n2)CN1 (configuration not stated) + Cc1nc(NC(=O)N2CCCC2C(N)=O)sc1-c1ccnc(C(C)(C)C(F)(F)F)c1
label_class: bin 0
--
molecule: Cn1nccc1Nc1nccc(-c2ccn(C(CO)c3ccc(Cl)c(F)c3)c(=O)c2)n1 (configuration not stated) + CC(Nc1ncnc2nc[nH]c12)c1cc2cccc(Cl)c2c(=O)n1-c1ccccc1
label_class: bin 2
--
molecule: C[C@@H](NC(=O)c1ncnc(N)c1Cl)c1ncc(C(=O)Nc2cc(C(F)(F)F)c(Cl)cn2)s1 + CC(Nc1ncnc2nc[nH]c12)c1cc2cccc(Cl)c2c(=O)n1-c1ccccc1
label_class: bin 2
--
molecule: CC1(C)CCC(CN2CCN(c3ccc(C(=O)NS(=O)(=O)c4ccc(NCC5CCOCC5)c([N+](=O)[O-])c4)c(Oc4cnc5[nH]ccc5c4)c3)CC2)=C(c2ccc(Cl)cc2)C1 + CC(Nc1ncnc2nc[nH]c12)c1cc2cccc(Cl)c2c(=O)n1-c1ccccc1
label_class: bin 2
--
molecule: C=CC(=O)N1CCN(c2nc(=O)n(-c3c(C)ccnc3C(C)C)c3nc(-c4c(O)cccc4F)c(F)cc23)C(C)C1 (configuration not stated) + Cc1nc(NC(=O)N2CCCC2C(N)=O)sc1-c1ccnc(C(C)(C)C(F)(F)F)c1
label_class: bin 2
--
molecule: CC(Cn1ccc(-c2ccc(C#N)c(Cl)c2)n1)NC(=O)c1cc(C(C)O)[nH]n1 (configuration not stated) + Cc1nc(NC(=O)N2CCCC2C(N)=O)sc1-c1ccnc(C(C)(C)C(F)(F)F)c1
label_class: bin 1
--
molecule: CCCS(=O)(=O)Nc1ccc(F)c(C(=O)c2c[nH]c3ncc(-c4ccc(Cl)cc4)cc23)c1F + Cc1nc(NC(=O)N2CCCC2C(N)=O)sc1-c1ccnc(C(C)(C)C(F)(F)F)c1
label_class: bin 0
--
molecule: C=CC(=O)N1CCN(c2nc(=O)n(-c3c(C)ccnc3C(C)C)c3nc(-c4c(O)cccc4F)c(F)cc23)C(C)C1 (configuration not stated) + CC(Nc1ncnc2nc[nH]c12)c1cc2cccc(Cl)c2c(=O)n1-c1ccccc1
label_class: bin 2
--
molecule: CC(C)NCC(C(=O)N1CCN(c2ncnc3c2C(C)CC3O)CC1)c1ccc(Cl)cc1 (configuration not stated) + Cc1nc(NC(=O)N2CCCC2C(N)=O)sc1-c1ccnc(C(C)(C)C(F)(F)F)c1
label_class: bin 0
--
molecule: CC(Cn1ccc(-c2ccc(C#N)c(Cl)c2)n1)NC(=O)c1cc(C(C)O)[nH]n1 (configuration not stated) + CC(Nc1ncnc2nc[nH]c12)c1cc2cccc(Cl)c2c(=O)n1-c1ccccc1
label_class: bin 2
--
molecule: C#Cc1c(F)ccc2cc(O)cc(-c3ncc4c(N5CC6CCC(C5)N6)nc(OCC56CCCN5CC(F)C6)nc4c3F)c12 (configuration not stated) + CC(Nc1ncnc2nc[nH]c12)c1cc2cccc(Cl)c2c(=O)n1-c1ccccc1
label_class: bin 2
--
molecule: C[C@@H](NC(=O)c1ncnc(N)c1Cl)c1ncc(C(=O)Nc2cc(C(F)(F)F)c(Cl)cn2)s1 + Cc1nc(NC(=O)N2CCCC2C(N)=O)sc1-c1ccnc(C(C)(C)C(F)(F)F)c1
label_class: bin 1
